Source listed as patent US11753407B2.

This section presents compounds with their documented melting point values.

[[record]]
compound = "Cc1cn2cc(-c3cc(=O)n4cc(N5CCNCC5)ccc4n3)ccc2n1 [Cpd 109]"
observed_value = "259 to 267 °C"

[[record]]
compound = "Cc1nc2ccc(-c3cc(=O)n4cc(N5CC[C@@H](N(C)C)C5)ccc4n3)cc2o1 [Compound 264]"
observed_value = "203 to 207 °C"

[[record]]
compound = "CCc1cc(-c2cc(=O)n3cc(N4CCN(CCO)CC4)ccc3n2)cn2cc(C)nc12 [Compound 647]"
observed_value = "248 to 253 °C"

[[record]]
compound = "COc1cc(-c2cc(=O)n3cc(N4CCNCC4)ccc3n2)cc(F)c1F [Compound 218]"
observed_value = "155 to 160 °C"

[[record]]
compound = "Cc1cn2cc(-c3cc(=O)n4cc(N5CCN(C(C)C)CC5)ccc4n3)cc(Cl)c2n1 [Compound 374]"
observed_value = "287 to 292 °C"


What measured melting point goes with COc1ccc(-c2cc(=O)n3cc(N4CCNCC4)ccc3n2)cc1OC(F)(F)F [Cpd 81] ?
158 to 162 °C

Now the same for CCc1cc(-c2cc(=O)n3cc(C4CCN(C)CC4)ccc3n2)cn2cc(C)nc12 [Compound 697]
214 to 218 °C

Subsequent entry: COc1c(-c2cc(=O)n3cc(N4CCNCC4)ccc3n2)cccc1C(F)(F)F [Compound 78]
194 to 200 °C

Please do the same for COc1ccc(-c2cc(=O)n3cc(N4CCNCC4)ccc3n2)cc1C [Compound 149] as well.
198 to 203 °C

Quick one: Cc1cn2cc(-c3cc(=O)n4cc(N5CCN[C@@H](C)C5)ccc4n3)cc(C(F)(F)F)c2n1 [Compound 735]
> 320 °C

What do you have for CCc1nc(C)cn2nc(-c3cc(=O)n4cc(N5CCN(C)[C@@H](C)C5)cc(C)c4n3)cc12 [Compound 789] ?
235 to 241 °C

Param item: Cc1cn2nc(-c3cc(=O)n4cc(N5CCN[C@@H](C)C5)ccc4n3)cc2c(C)n1 [Compound 121]
192 to 194 °C

Next: COc1nc(C)cn2nc(-c3cc(=O)n4cc(N5CCN(C)CC5)ccc4n3)cc12 [Cpd 625]
242 to 244 °C

Record: Cc1cn2nc(-c3cc(=O)n4cc(C5CCN(CCF)CC5)ccc4n3)cc2c(C)n1 [Cpd 662]
197 to 199 °C

Now consider Cc1nc2ccc(-c3cc(=O)n4cc(N5CCNC(C)(C)C5)ccc4n3)cc2o1 [Compound 194] and answer again.
160 to 162 °C

Check O=c1cc(-c2ccc([N+](=O)[O-])cc2)nc2ccc(N3CCNCC3)cn12 [Compound 47] too.
237 to 242 °C

Try this compound too: Cc1cn2cc(-c3cc(=O)n4cc(N5C[C@@H](C)N[C@@H](C)C5)ccc4n3)cc(Cl)c2n1 [Compound 288]
289 to 295 °C
